ED50 by entry:
test system: Mus musculus; assay: Analgesic activity against acetic acid induced writhing test in mouse after peroral administration; type: functional; settings: Mus musculus, po; read-out: ED50

Before answering, review these 10 worked examples.
- molecule: "O=C(Nc1nccs1)c1c(C(F)(F)F)nc2c(Cl)ccc(C(F)(F)F)c2c1O"
  ED50: "> 50 mg/kg"
- molecule: "Cn1ccnc1NC(=O)c1c(C(Cl)Cl)nc2c(C(F)(F)F)cccc2c1O"
  ED50: "> 25 mg/kg"
- molecule: "O=C(Nc1nccs1)c1c(C(Cl)Cl)nc2c(F)cccc2c1O"
  ED50: "25 mg/kg"
- molecule: "O=C(Nc1nccs1)c1c(C(F)F)nc2c(C(F)(F)F)cccc2c1O"
  ED50: "5 mg/kg"
- molecule: "O=C(Nc1nccs1)c1c(C(Cl)Cl)nc2cc(Cl)ccc2c1O"
  ED50: "> 100 mg/kg"
- molecule: "O=C(Nc1ccccn1)c1c(C(Cl)Cl)nc2c(C(F)(F)F)cccc2c1O"
  ED50: "20 mg/kg"
- molecule: "O=C(Nc1ccccn1)c1cnc2c(C(F)(F)F)cccc2c1O"
  ED50: "> 50 mg/kg"
- molecule: "O=C(Nc1nccs1)c1cnc2ccccc2c1O"
  ED50: "> 10 mg/kg"
- molecule: "CCC(O)c1nc2c(C(F)(F)F)cccc2c(O)c1C(=O)Nc1ccccn1 (stereo unspecified)"
  ED50: "20 mg/kg"
- molecule: "CC(C)c1ccc2nc(C(F)(F)F)c(C(=O)Nc3nccs3)c(O)c2c1"
  ED50: "> 100 mg/kg"

Let's switch to this molecule now.
Input line: GET /values?readout=ED50&system=Mus musculus&item= `CCc1nc2c(C(F)(F)F)cccc2c(O)c1C(=O)Nc1cc(C)on1`
Output line: > 50 mg/kg
